# TARGET OR TEST SYSTEM: HLA-B*51:01
# ASSAY: IEDB peptide-MHC binding, purified MHC/competitive/radioactivity; filed as Kd, often an IC50 or EC50 that approximates it; bounds were set here for any values at or beyond the usual limits of such assays
# DETAILS: source organism: Hepatitis B virus
pKd: −log10 of the molar value.
EXPERIMENTAL ENDPOINT: pKd

DPSRGRLGL ... ≤ 4.60

Enquiry: # lookup: pKd of TPARVTGGVF
Return: ≤ 4.60

---

# TARGET OR TEST SYSTEM: HLA-A*02:03
# ASSAY: IEDB peptide-MHC binding, purified MHC/competitive/radioactivity; filed as Kd, often an IC50 or EC50 that approximates it; bounds were set here for any values at or beyond the usual limits of such assays
# DETAILS: source organism: Hepatitis B virus
EXPERIMENTAL ENDPOINT: Kd (µM)
Record the value in µM, omitting the unit from your answer.

Enquiry: Request - read-out Kd | tested on HLA-A*02:03 | sequence YMDDVVLGA
Return: 4.17

Where do the numbers come from? From the Immune Epitope Database (IEDB).
